readout: melting point

[[record]]
compound = "NC(=O)COc1cccc(CCNS(=O)(=O)c2ccc(Br)cc2)c1"
readout = "melting point"
testresult = "115 to 116 °C"

[[record]]
compound = "C=Cc1ccc(S(=O)(=O)Nc2ncnc(Cl)c2Cc2c(OC)cccc2OC)cc1"
readout = "melting point"
testresult = "197 to 198 °C"

[[record]]
compound = "CCN1CCNC(=O)c2ccc(Nc3ncc(Cl)c(N[C@@H]4CCCC[C@H]4NS(C)(=O)=O)n3)cc21"
readout = "melting point"
testresult = "216 to 220 °C"

[[record]]
compound = "COCCOc1ccc(CCNC(=O)c2cnc3ccccc3c2)cc1S(N)(=O)=O"
readout = "melting point"
testresult = "170 °C"

[[record]]
compound = "NC(=O)NC(=O)c1ccccc1"
readout = "melting point"
testresult = "175 °C"

[[record]]
compound = "O=S(=O)(N=CN(CCO)CCO)c1cc(Br)cc(Br)c1"
readout = "melting point"
testresult = "118 °C"

[[record]]
compound = "CCOC(=O)c1ccc(NC(=O)CCc2ccc(C)cc2)cc1"
readout = "melting point"
testresult = "154 to 155 °C"

[[record]]
compound = "O=C1CC2c3cc(F)ccc3CCN2C2CCCCC12 (stereo unspecified)"
readout = "melting point"
testresult = "130 to 136 °C"

[[record]]
compound = "CCCCCCCCCCCCCCCCOC(=O)NCCN1CCOCC1"
readout = "melting point"
testresult = "65 °C"

[[record]]
compound = "CCc1noc(C)c1-c1[nH]c2ccccc2c1C(C)=O"
readout = "melting point"
testresult = "170 to 173 °C"

[[record]]
compound = "C=CCOC(=O)N1CCCC(OC)C1CC(=O)Cn1cnc2cc(Br)c(Cl)cc2c1=O (stereo unspecified)"
readout = "melting point"
testresult = "112 °C"

[[record]]
compound = "CCCC(=O)c1ccc(OCCN2CCN(c3cc(Cl)nnc3Cl)CC2)cc1"
readout = "melting point"
testresult = "140 to 141 °C"

[[record]]
compound = "COC(=O)[C@@H]1C[C@H](C(=O)OC(C)(C)C)N(C(=O)CNC(=O)Nc2cccc(C(=O)O)c2)[C@@H]1c1ccccc1 (racemic)"
readout = "melting point"
testresult = "243 °C"

[[record]]
compound = "COC(=O)c1[nH]c(-c2ccccc2)c(N=Cc2ccccc2)c1C(=O)OC"
readout = "melting point"
testresult = "218 to 220 °C"

[[record]]
compound = "O=C(c1ccccc1)c1cccnc1-c1nc(NCc2ccc(Cl)cc2)c2ccccc2n1"
readout = "melting point"
testresult = "147 to 149 °C"

[[record]]
compound = "Cc1[nH]c(=O)c(-c2csc(-c3ccnc(NCc4ccccn4)c3)n2)cc1C(=O)NCc1ccccn1"
readout = "melting point"
testresult = "> 260 °C"

[[record]]
compound = "CNC(=N)Cc1nc(C(C)C)c(Sc2cc(Cl)cc(Cl)c2)n1C"
readout = "melting point"
testresult = "176 to 178 °C"

[[record]]
compound = "CCN(C)c1ccc(Cl)nn1"
readout = "melting point"
testresult = "61 to 63 °C"

[[record]]
compound = "Cc1nc(-c2cc3cc(OCCNC[C@H](O)c4cccc(Cl)c4)ccc3o2)no1"
readout = "melting point"
testresult = "88 to 92 °C"

[[record]]
compound = "NC(=O)c1cc2c(c(C(=O)O)c1)NCCC2"
readout = "melting point"
testresult = "268 to 269 °C"

[[record]]
compound = "CC(C(=O)Nc1ccccc1)n1nc(O)c2[nH]c3cc(Cl)ccc3c(=O)c2c1=O (stereo unspecified)"
readout = "melting point"
testresult = "215 °C"

[[record]]
compound = "CC(C)S(=O)(=O)n1cc(-c2ccc(Oc3ccccc3)cc2)c2c(N)ncnc21"
readout = "melting point"
testresult = "162 °C"

[[record]]
compound = "CC(=O)c1cccc(S(=O)(=O)NCc2ccccc2-c2ccccc2C(=O)NCc2ccccc2)c1"
readout = "melting point"
testresult = "182 °C"

[[record]]
compound = "O=C(NCCO)c1cccc(-c2cccc3cc(Cc4cccc(C(F)(F)F)c4)oc23)c1"
readout = "melting point"
testresult = "140 to 141 °C"

[[record]]
compound = "Cn1ccc(-c2ccc([N+](=O)[O-])o2)n1"
readout = "melting point"
testresult = "163 to 164 °C"

[[record]]
compound = "C=CCON=C(C(=O)OCC)c1csc(NC(c2ccccc2)(c2ccccc2)c2ccccc2)n1"
readout = "melting point"
testresult = "130 to 132 °C"

[[record]]
compound = "COc1cccc(CN2Cc3cc(OC)c(O)cc3C(OC)C2)c1 (stereo unspecified)"
readout = "melting point"
testresult = "133 to 134 °C"

[[record]]
compound = "CCOCc1nc2c(N)nc3cc(OCc4ccc(OC)cc4)ccc3c2n1CC(C)C"
readout = "melting point"
testresult = "181 to 182 °C"

[[record]]
compound = "Cc1cc(Cl)c(C(N)=O)c(Cl)c1"
readout = "melting point"
testresult = "101 to 107 °C"

[[record]]
compound = "Cc1onc(-c2ccccc2)c1C(=O)NCCCN1CCN(c2cc(Cl)ccc2O)CC1"
readout = "melting point"
testresult = "92 to 98 °C"

[[record]]
compound = "C[C@]12C=CC(=O)N[C@@H]1CCc1cc(-c3cccc([N+](=O)[O-])c3)ccc12"
readout = "melting point"
testresult = "205 to 206 °C"

[[record]]
compound = "CCOC(=O)c1cc(CC)sc1Nc1cc(C)ccc1[N+](=O)[O-]"
readout = "melting point"
testresult = "55 to 57 °C"

[[record]]
compound = "CS(=O)(=O)c1ccc(C(=O)O)c(Cl)c1C1=NOCC1"
readout = "melting point"
testresult = "145 to 146 °C"

[[record]]
compound = "CCOC(=O)c1cc2cc(C)sc2[nH]1"
readout = "melting point"
testresult = "107 to 109 °C"

[[record]]
compound = "O=C(O)c1cn(-c2c[nH]nn2)c2cc(F)c(F)cc2c1=O"
readout = "melting point"
testresult = "215 to 224 °C"

[[record]]
compound = "O=C(Nc1ccc2ccc(Cl)nc2n1)C1CC1"
readout = "melting point"
testresult = "250 °C"

[[record]]
compound = "CCOC(=O)/C=C(C)/C=C/C=C(C)/C=C/c1c(C)coc1C"
readout = "melting point"
testresult = "98 to 101 °C"

[[record]]
compound = "NNc1ccnc2c(NC(=O)c3ccccc3[N+](=O)[O-])cccc12"
readout = "melting point"
testresult = "198 to 203 °C"

[[record]]
compound = "O=S(=O)(Nc1cccc(CCOCc2noc(-c3ccc(C(F)(F)F)cc3)n2)c1)C(F)(F)F"
readout = "melting point"
testresult = "83 to 86 °C"

[[record]]
compound = "CCOC(=O)CCCCSc1nc2ccccc2[nH]1"
readout = "melting point"
testresult = "88 to 90 °C"

[[record]]
compound = "COc1ccc(N2CCN(c3c(C)c(C)c4c(c3C)CC(C)(CC#N)O4)CC2)cc1 (stereo unspecified)"
readout = "melting point"
testresult = "161 to 163 °C"


Reference for the values: a melting point compilation (Tetko et al.; mined from patent text by program, amines drawn as free bases though some values may be those of a salt)
